Values from patent US10927098B2

System Under Test: human V1a receptor (Homo sapiens, UniProt P37288)
Construct: expressed in transfected cells; host or cells: CHO K1 (ATCC), also stably transfected with a modified aequorin
Sequence (P37288 whole entry): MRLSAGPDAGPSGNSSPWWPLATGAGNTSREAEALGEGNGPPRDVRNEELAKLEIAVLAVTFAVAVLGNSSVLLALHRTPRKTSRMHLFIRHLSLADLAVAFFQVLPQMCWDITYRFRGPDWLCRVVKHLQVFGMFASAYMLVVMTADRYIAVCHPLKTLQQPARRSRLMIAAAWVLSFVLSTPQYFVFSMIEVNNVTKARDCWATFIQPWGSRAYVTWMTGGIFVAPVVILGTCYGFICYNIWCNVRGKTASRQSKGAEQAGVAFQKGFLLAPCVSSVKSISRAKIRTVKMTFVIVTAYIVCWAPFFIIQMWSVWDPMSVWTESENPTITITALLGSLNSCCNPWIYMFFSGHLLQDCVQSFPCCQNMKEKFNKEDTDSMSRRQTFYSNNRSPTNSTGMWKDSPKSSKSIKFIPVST
Method Summary: Cellular in vitro assay for determining vasopressin receptor activity, V1a receptor cell line (aequorin luminescence)
Format: cell-based
Protocol Conditions: ratio of the IC50 values at human V2 and human V1a receptor
Below is a list of entries, each paired with its recorded ratio IC50 hV2/hV1a value.
Observation Type: ratio IC50 hV2/hV1a

Compound: CC(C)C(O)c1nc(Cn2nc(-c3ccc(Cl)cc3)n(C[C@H](O)C(F)(F)F)c2=O)nn1-c1ccccc1Cl (single isomer, unassigned) [Example 9]
Observation Type: ratio IC50 hV2/hV1a
Reported Measurement: 28.2
--
Compound: CCC(O)c1nc(Cn2nc(-c3ccc(Cl)cc3)n(C[C@H](O)C(F)(F)F)c2=O)nn1-c1ccccc1Cl (single isomer, unassigned) [Example 5]
Observation Type: ratio IC50 hV2/hV1a
Reported Measurement: 2.6
--
Compound: CCC(O)c1nc(Cn2nc(-c3ccc(Cl)cc3)n(C[C@H](O)C(F)(F)F)c2=O)nn1-c1ccccc1Cl (single isomer, unassigned) [Example 6]
Observation Type: ratio IC50 hV2/hV1a
Reported Measurement: 12.0
--
Compound: CC(O)(C(=O)O)c1nc(Cn2nc(-c3ccc(Cl)cc3)n(C[C@H](O)C(F)(F)F)c2=O)nn1-c1ccccc1Cl (single isomer, unassigned) [Example 15]
Observation Type: ratio IC50 hV2/hV1a
Reported Measurement: 7.6
